- Tested on: NCI-H460
- method: relative viability (nuclei count vs DMSO), 5 days (fraction); higher = more cells survive
- measurement.conditions: first compound 1 µM
measurement.name: relative viability

• CCN(CC)CCCCNc1ncc2cc(-c3cc(OC)cc(OC)c3)c(NC(=O)NC(C)(C)C)nc2n1 + CCNC(=O)c1noc(-c2cc(C(C)C)c(O)cc2O)c1-c1ccc(CN2CCOCC2)cc1 [Luminespib] (partner 0.01 µM) = 0.0473
• O=c1cc(N2CCOCC2)oc2c(-c3cccc4c3sc3ccccc34)cccc12 + CC(C)C[C@H](NC(=O)[C@H](Cc1ccccc1)NC(=O)c1cnccn1)B(O)O [Bortezomib] (partner 0.002 µM) = 1.07
• O=c1cc(N2CCOCC2)oc2c(-c3cccc4c3sc3ccccc34)cccc12 + N=C(N)NC(=N)NCCc1ccccc1 [Phenformin] (partner 250 µM) = 0.544
• CCN(CC)CCCCNc1ncc2cc(-c3cc(OC)cc(OC)c3)c(NC(=O)NC(C)(C)C)nc2n1 + CS(=O)(=O)CCNCc1ccc(-c2ccc3ncnc(Nc4ccc(OCc5cccc(F)c5)c(Cl)c4)c3c2)o1 [Lapatinib] (partner 2 µM) = 0.532
• O=c1cc(N2CCOCC2)oc2c(-c3cccc4c3sc3ccccc34)cccc12 + COc1cc2c(Oc3ccc(NC(=O)C4(C(=O)Nc5ccc(F)cc5)CC4)cc3F)ccnc2cc1OCCCN1CCOCC1 [Foretinib] (partner 0.25 µM) = 1.04

----------
- Test system: NCI-H2087
- method: relative viability (nuclei count vs DMSO), 5 days (fraction); higher = more cells survive
- measurement.conditions: first compound 0.253 µM
measurement.name: relative viability

- COc1nc(C)cnc1NS(=O)(=O)c1cccnc1-c1ccc(-c2nnco2)cc1 [Zibotentan] + CC(=O)Nc1cccc(-n2c(=O)n(C3CC3)c(=O)c3c(Nc4ccc(I)cc4F)n(C)c(=O)c(C)c32)c1 [Trametinib] (partner 0.02 µM): 0.146
- COc1nc(C)cnc1NS(=O)(=O)c1cccnc1-c1ccc(-c2nnco2)cc1 [Zibotentan] + Cc1cc(Nc2cc(N3CCN(C)CC3)nc(Sc3ccc(NC(=O)C4CC4)cc3)n2)n[nH]1 [Tozasertib] (partner 0.1 µM): 0.268

----------
- System: HCC-44
- method: relative viability (nuclei count vs DMSO), 5 days (fraction); higher = more cells survive
- measurement.conditions: first compound 0.01 µM
We begin with a simple list: items and their reported relative viability.
measurement.name: relative viability

• CCN(CC)CCCCNc1ncc2cc(-c3cc(OC)cc(OC)c3)c(NC(=O)NC(C)(C)C)nc2n1 + Nc1nc2[nH]cc(CCc3ccc(C(=O)N[C@@H](CCC(=O)O)C(=O)O)cc3)c2c(=O)[nH]1 [Pemetrexed] (partner 0.2 µM) = 0.682
• O=c1cc(N2CCOCC2)oc2c(-c3cccc4c3sc3ccccc34)cccc12 + CCNC(=O)c1noc(-c2cc(C(C)C)c(O)cc2O)c1-c1ccc(CN2CCOCC2)cc1 [Luminespib] (partner 0.01 µM) = 1.02
• O=c1cc(N2CCOCC2)oc2c(-c3cccc4c3sc3ccccc34)cccc12 + CC(=O)Nc1cccc(-n2c(=O)n(C3CC3)c(=O)c3c(Nc4ccc(I)cc4F)n(C)c(=O)c(C)c32)c1 [Trametinib] (partner 0.02 µM) = 1.04
• CCN(CC)CCCCNc1ncc2cc(-c3cc(OC)cc(OC)c3)c(NC(=O)NC(C)(C)C)nc2n1 + O=C(c1cc(Cc2n[nH]c(=O)c3ccccc23)ccc1F)N1CCN(C(=O)C2CC2)CC1 [Olaparib] (partner 8 µM) = 1.06
